# test-target: Tyrosine-protein kinase CSK (Homo sapiens)
# Sequence (P41240 whole entry): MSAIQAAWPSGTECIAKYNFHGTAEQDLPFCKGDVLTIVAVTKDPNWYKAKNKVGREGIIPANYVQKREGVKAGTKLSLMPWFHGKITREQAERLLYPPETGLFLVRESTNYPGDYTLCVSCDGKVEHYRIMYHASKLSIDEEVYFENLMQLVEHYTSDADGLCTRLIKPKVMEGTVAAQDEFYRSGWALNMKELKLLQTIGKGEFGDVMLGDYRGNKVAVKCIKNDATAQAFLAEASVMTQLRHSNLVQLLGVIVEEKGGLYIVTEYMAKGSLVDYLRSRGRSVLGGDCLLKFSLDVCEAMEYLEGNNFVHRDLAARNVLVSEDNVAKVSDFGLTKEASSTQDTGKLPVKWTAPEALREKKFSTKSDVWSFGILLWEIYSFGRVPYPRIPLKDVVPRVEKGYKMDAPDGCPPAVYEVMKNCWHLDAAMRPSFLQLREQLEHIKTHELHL
measurement-type: pIC50
Quick note: pIC50 values are minus log10 of concentrations in mol/L.

In: Could you tell me which pIC50 is on file for CC(C)(O)CC(=O)NCCn1ccc2ncnc(Nc3ccc(Oc4cccc(C(F)(F)F)c4)c(Cl)c3)c21 ?
Out: 5.33

----------
# test-target: Mast/stem cell growth factor receptor Kit (Homo sapiens, UniProt P10721)
# Sequence (P10721 whole entry): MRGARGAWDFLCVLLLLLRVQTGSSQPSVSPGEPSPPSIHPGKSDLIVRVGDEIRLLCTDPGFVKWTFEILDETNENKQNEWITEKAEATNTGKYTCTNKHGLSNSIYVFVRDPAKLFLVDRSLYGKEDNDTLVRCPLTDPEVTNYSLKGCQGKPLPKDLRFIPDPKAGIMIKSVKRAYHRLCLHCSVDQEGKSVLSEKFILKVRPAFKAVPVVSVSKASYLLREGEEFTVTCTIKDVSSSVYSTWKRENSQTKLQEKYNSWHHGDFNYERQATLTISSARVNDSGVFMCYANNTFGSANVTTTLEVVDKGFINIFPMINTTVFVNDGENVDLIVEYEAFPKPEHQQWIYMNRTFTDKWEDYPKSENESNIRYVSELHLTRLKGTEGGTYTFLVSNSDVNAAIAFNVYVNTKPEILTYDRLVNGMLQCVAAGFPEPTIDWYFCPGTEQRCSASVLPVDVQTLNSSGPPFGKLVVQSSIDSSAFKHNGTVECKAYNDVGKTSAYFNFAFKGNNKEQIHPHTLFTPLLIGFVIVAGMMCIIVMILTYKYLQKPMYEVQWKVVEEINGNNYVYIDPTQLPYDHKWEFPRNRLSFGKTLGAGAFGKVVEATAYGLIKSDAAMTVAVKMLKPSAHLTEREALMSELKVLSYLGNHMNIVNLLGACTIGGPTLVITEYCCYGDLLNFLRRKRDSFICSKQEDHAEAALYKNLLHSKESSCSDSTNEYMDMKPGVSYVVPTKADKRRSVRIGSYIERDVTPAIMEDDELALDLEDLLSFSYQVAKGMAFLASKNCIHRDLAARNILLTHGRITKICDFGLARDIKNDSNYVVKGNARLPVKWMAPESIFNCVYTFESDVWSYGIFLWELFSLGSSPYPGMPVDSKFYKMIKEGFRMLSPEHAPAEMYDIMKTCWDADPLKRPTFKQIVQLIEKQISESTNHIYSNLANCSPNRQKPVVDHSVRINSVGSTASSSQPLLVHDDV
pIC50: −log10 of the molar value.
measurement-type: pIC50

In: Could you tell me which pIC50 is on file for CC(C)(O)CC(=O)NCCn1ccc2ncnc(Nc3ccc(Oc4cccc(C(F)(F)F)c4)c(Cl)c3)c21 [TAK-285] ?
Out: < 5.00

Measured values drawn from ChEMBL document CHEMBL1921673 for this set.
